ASSAY SYSTEM: TRPC5 (Homo sapiens)
Construct: expressed in transfected cells; host or cells: HEK 293
Sequence (Q9UL62 whole entry): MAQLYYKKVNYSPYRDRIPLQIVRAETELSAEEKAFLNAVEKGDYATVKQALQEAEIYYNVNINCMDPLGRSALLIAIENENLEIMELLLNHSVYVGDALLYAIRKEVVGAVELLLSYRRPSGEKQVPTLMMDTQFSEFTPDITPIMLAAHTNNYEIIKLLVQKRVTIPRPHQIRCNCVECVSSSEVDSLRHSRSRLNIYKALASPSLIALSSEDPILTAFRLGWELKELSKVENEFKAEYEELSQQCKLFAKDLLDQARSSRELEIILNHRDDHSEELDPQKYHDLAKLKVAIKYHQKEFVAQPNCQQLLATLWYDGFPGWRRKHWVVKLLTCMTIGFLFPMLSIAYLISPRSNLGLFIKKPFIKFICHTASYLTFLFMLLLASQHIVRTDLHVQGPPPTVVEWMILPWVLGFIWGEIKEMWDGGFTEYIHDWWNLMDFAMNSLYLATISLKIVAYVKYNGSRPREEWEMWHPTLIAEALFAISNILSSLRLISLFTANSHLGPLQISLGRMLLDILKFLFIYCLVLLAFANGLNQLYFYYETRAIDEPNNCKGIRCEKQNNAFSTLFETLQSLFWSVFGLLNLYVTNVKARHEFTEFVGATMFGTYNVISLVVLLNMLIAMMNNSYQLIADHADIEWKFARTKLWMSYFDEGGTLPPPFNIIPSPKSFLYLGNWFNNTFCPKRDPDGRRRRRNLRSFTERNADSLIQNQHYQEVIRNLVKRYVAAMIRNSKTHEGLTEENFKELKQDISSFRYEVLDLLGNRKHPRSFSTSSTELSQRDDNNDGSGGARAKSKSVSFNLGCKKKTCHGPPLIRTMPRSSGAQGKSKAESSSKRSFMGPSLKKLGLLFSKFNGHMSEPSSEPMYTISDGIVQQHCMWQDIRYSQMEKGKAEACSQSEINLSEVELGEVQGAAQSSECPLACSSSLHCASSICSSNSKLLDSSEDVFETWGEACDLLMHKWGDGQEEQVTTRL
MEASUREMENT DESCRIPTION: TRPC5 Fluorescence Assay - FLIPR format (HEK-TREx hTRPC5, Riluzole stimulation)
Format: cell-based
REPORTED CONDITIONS: Table 9, read-out: hTRPCS-FLIPR IC50
Answer each item with its documented IC50.

What IC50 value was documented for this compound, O=c1[nH]ncc(N2CCN(S(=O)(=O)Cc3ccccc3C(F)(F)F)CC2)c1Cl ?
1000 to 5000 nM

What IC50 value was documented for this compound, C[C@@H]1CN([C@@H](C)c2ccc(F)cc2C(F)(F)F)C(=O)CN1c1cn[nH]c(=O)c1Cl ?
0.01 to 1000 nM

What IC50 value was documented for this compound, CCc1ncccc1[C@@H](C)N1CCN(c2cn[nH]c(=O)c2Cl)CC1 ?
0.01 to 1000 nM

What IC50 value was documented for this compound, NC(=O)C1(Cc2ccccc2C(F)(F)F)CCN(c2cn[nH]c(=O)c2Cl)CC1 ?
1000 to 5000 nM

What IC50 value was documented for this compound, CCc1ncccc1[C@H](C(C)C)N1CCN(c2cn[nH]c(=O)c2Cl)CC1 ?
1000 to 5000 nM

What IC50 value was documented for this compound, C[C@H](O)c1ncccc1CN1CCN(c2cn[nH]c(=O)c2Cl)CC1 ?
0.01 to 1000 nM

What IC50 value was documented for this compound, COCc1ncccc1CN1CCN(c2cn[nH]c(=O)c2Cl)CC1 [drawing 1030] ?
0.01 to 1000 nM

What IC50 value was documented for this compound, C[C@H](c1ccccc1C(F)(F)F)N1CCN(c2cn[nH]c(=O)c2Cl)CC1=O ?
1000 to 5000 nM

What IC50 value was documented for this compound, C[C@@H](c1ccc(F)cc1C(F)(F)F)N1CCN(c2cn[nH]c(=O)c2Cl)CC1=O [drawing 1049] ?
0.01 to 1000 nM
